The values you see were collected from ChEMBL document CHEMBL3885881.

Species: Rattus norvegicus
Experiment: DrugMatrix - Regimen: Daily Repeat
Type: toxicity, organism-based, Sprague-Dawley
Parameters: regimen Daily Repeat, gender Male, age 6-8 weeks
Details: in vivo, ip, 0 mg/kg, 120 h, tissue Blood, route intraperitoneal, dose level Control, time 5 day, vehicle 100 % SALINE
Measured ABSOLUTE MONOCYTE accompanies every entry in the list below.
Please reply with the bare figure in cells/µL and do not write the unit itself.

[
  {
    "sequence_code": "COBALTOUS CHLORIDE",
    "measurement_unit": "cells/µL",
    "result_number": 140
  }
]

Let us move to another entry and its ABSOLUTE MONOCYTE.
Lookup result for TRANSPLATIN ; measured ABSOLUTE MONOCYTE: 140
